- PROTOCOL DESCRIPTION: Metabolism of isoflavones by homogenate of germfree mouse small intestine
- Type: in vitro ADME
- CONDITION NOTES: pH 5.0; 3 days
MEASURED ATTRIBUTE: Glycoside detected after incubation against compound added (%)

(P) O=c1c(-c2ccc(O)cc2)coc2cc(O[C@@H]3O[C@H](CO)[C@@H](O)[C@H](O)[C@H]3O)cc(O)c12 [Genistin]
(Q) COc1c(O[C@@H]2O[C@H](CO[C@@H]3OC[C@@H](O)[C@H](O)[C@H]3O)[C@@H](O)[C@H](O)[C@H]2O)cc2occ(-c3ccc(O)cc3)c(=O)c2c1O [TGXG, Tectorigenin 7-O-xylosylglucoside]
(R) O=c1c(-c2ccc(O)cc2)coc2cc(O[C@@H]3O[C@H](CO)[C@@H](O)[C@H](O)[C@H]3O)c(O[C@@H]3O[C@H](CO)[C@@H](O)[C@H](O)[C@H]3O)c(O)c12 [6HGDG, 6-hydroxygenistein 6,7-di-O-glucoside]
Order the entries above from lowest to highest Glycoside detected after incubation against compound added. Please respond with the labels ordered as the question requires.
P, Q, R
(P: 0.0%, Q: 4.9%, R: 99.4%)

###

- PROTOCOL DESCRIPTION: Metabolism of isoflavones by homogenate of germfree mouse small intestine
- Format: in vitro ADME
- CONDITION NOTES: pH 7.4; 3 days
MEASURED ATTRIBUTE: Glycoside detected after incubation against compound added (%)

See these solved cases before continuing.
MOLECULE	QUANTITATIVE READOUT
COc1cc2c(=O)c(-c3ccc(O)cc3)coc2cc1O[C@@H]1O[C@H](CO)[C@@H](O)[C@H](O)[C@H]1O [Glycitin, glycitin]	0.0
COc1c(O[C@@H]2O[C@H](CO)[C@@H](O)[C@H](O)[C@H]2O)cc2occ(-c3ccc(O)cc3)c(=O)c2c1O [Tectoridin, tectoridin]	0.0

(I) O=c1c(-c2ccc(O)cc2)coc2cc(O[C@@H]3O[C@H](CO)[C@@H](O)[C@H](O)[C@H]3O)cc(O)c12 [Genistin]
(II) COc1c(O[C@@H]2O[C@H](CO[C@@H]3OC[C@@H](O)[C@H](O)[C@H]3O)[C@@H](O)[C@H](O)[C@H]2O)cc2occ(-c3ccc(O)cc3)c(=O)c2c1O [TGXG, Tectorigenin 7-O-xylosylglucoside]
Looking at recorded values for Glycoside detected after incubation against compound added, does I or II come in lower? Your answer should be the label of the entry you select.
I
(I: 0.0%, II: 60.7%)
